Ref: patent US10099995B2

Experiment: physchem
Conditions: pH 7.4, aqueous buffer, thermodynamic from solid
reported-property: Solubility (µg/mL)
Your answer is read as µg/mL, so omit the unit and give the number.

Asked: State the recorded Solubility for this entry: Oc1ccc(/C=C/c2cc(O)cc(O)c2)cc1 [Resveratrol, trans-3,4′,5-trihydroxystilbene]
Given back: 4.8
